Experimental Target: Human recombinant FAP (Homo sapiens, UniProt Q12884)
Sequence (Q12884 whole entry): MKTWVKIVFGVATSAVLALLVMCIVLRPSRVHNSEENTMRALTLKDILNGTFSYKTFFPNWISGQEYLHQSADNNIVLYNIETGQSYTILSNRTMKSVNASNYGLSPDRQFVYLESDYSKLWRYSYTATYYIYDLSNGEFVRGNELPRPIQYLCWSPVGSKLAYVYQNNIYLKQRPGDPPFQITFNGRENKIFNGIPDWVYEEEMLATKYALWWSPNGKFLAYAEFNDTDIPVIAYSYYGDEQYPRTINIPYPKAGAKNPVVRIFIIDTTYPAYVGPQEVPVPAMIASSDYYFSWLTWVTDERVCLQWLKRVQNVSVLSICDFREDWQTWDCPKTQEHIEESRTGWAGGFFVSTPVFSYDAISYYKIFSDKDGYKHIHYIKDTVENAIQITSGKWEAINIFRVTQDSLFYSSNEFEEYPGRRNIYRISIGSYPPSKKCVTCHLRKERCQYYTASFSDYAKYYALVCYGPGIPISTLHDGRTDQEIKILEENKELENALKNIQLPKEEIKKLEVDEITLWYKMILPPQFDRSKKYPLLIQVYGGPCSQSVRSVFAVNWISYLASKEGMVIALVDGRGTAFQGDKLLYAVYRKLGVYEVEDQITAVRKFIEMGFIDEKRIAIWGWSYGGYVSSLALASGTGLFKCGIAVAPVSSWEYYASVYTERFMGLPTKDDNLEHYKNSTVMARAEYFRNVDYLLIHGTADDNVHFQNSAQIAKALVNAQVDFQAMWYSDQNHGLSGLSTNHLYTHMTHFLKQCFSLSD
Assay Procedure: FRET-based FAP protease activity assay
Format: biochemical
Parameters: purchased R&D systems 3715-SE
Test Conditions: pIC50 Category (Activity), FRET-peptide substrate, 37° C.
pIC50: −log10 of the molar value. Numbered stars: 1 amine (or outer) side, 2 acyl side, 3 side chain; on linkers, the order of the positions; unused ones are H or OH. Bridge positions count the residues as written; N and C are the ends. Square brackets hold non-standard residues; d marks the D form. Peptide text beside a SMILES is read from it. * marks the point of attachment. TBMB(SCH2CH2NH-DOTA) = O=C(O)CN1CCN(CC(=O)O)CCN(CC(=O)NCCSCc2cc(C[*:1])cc(C[*:2])c2)CCN(CC(=O)O)CC1; CO = O=C([*:1])[*:2]; Sar = CNCC(=O)O; NHBu = CCCCN*
Recorded Metric: pIC50

Q: Give pIC50 for CCCCNC(=O)N[C@H]1CSCc2cc(CSCCNC(=O)CN3CCN(CC(=O)O)CCN(CC(=O)O)CCN(CC(=O)O)CC3)cc(c2)CSC[C@@H](C(=O)O)NC(=O)[C@H](Cc2ccccc2)NC(=O)[C@H](CCC(N)=O)NC(=O)[C@H]([C@@H](C)O)NC(=O)[C@@H]2CCCN2C(=O)CN(C)C1=O [3BP-4607] ({NHBu-CO}-C[Sar]PTQFC-OH; linker 1-7 via TBMB(SCH2CH2NH-DOTA))
Result: > 8.00

Q: Give pIC50 for CCCCNC(=O)N[C@H]1CSCc2cc(cc(CN3CCN(C(=O)CN4CCN(CC(=O)O)CCN(CC(=O)O)CCN(CC(=O)O)CC4)CC3)c2)CSC[C@@H](C(=O)O)NC(=O)[C@H](Cc2ccccc2)NC(=O)[C@H](CCC(N)=O)NC(=O)[C@H]([C@@H](C)O)NC(=O)[C@@H]2CCCN2C(=O)[C@@H]2CCCN2C1=O [3BP-4564]
Result: > 8.00

Q: Give pIC50 for C[C@@H](O)[C@@H]1NC(=O)[C@@H]2CCCN2C(=O)[C@@H]2CCCN2C(=O)[C@@H](NC(=O)C2CCCCC2)CSCc2cc(CSCCNC(=O)CN3CCN(CC(=O)O)CCN(CC(=O)O)CCN(CC(=O)O)CC3)cc(c2)CSC[C@@H](C(=O)O)NC(=O)[C@H](Cc2ccccc2)NC(=O)[C@H](CCC(N)=O)NC1=O [3BP-3908]
Result: 6.10 to 7.00

* * *

Assay Procedure: Pharmacokinetic study in mice (plasma, NCA)
Test Conditions: mouse, intravenous, 400 nmol/kg
Recorded Metric: AUC(0-inf) (µM·h)
The figure you give is taken to be in µM·h; do not add the unit.

Q: Give AUC(0-inf) for CCCCCC(=O)N[C@H]1CSCc2cc(CSCCNC(=O)CN3CCN(CC(=O)O)CCN(CC(=O)O)CCN(CC(=O)O)CC3)cc(c2)CSC[C@@H](C(=O)O)NC(=O)[C@H](Cc2ccccc2)NC(=O)[C@H](CCC(N)=O)NC(=O)[C@H]([C@@H](C)O)NC(=O)[C@@H]2CCCN2C(=O)[C@@H]2CCCN2C1=O [3BP-3623]
Result: 0.532

* * *

Experimental Target: Human recombinant FAP (Homo sapiens)
Assay Procedure: Surface plasmon resonance (Biacore) assay
Numbered stars: 1 amine (or outer) side, 2 acyl side, 3 side chain; on linkers, the order of the positions; unused ones are H or OH. Bridge positions count the residues as written; N and C are the ends. Square brackets hold non-standard residues; d marks the D form. Peptide text beside a SMILES is read from it. * marks the point of attachment. ξ: configuration not given here. X13 = O=C(O)CN1CCN(CC(=O)O)CCN(CC(=O)N2CCN(Cc3cc(C[*:1])cc(C[*:2])c3)CC2)CCN(CC(=O)O)CC1; X7 = O=C(CCP(=O)(O)CN1CCN(CP(=O)(O)CO)CCN(CP(=O)(O)CO)CC1)NCCSCc1cc(C[*:1])cc(C[*:2])c1; X1 = NCCNCC(CNCCN)C(=O)N1CCN(CC(=O)NCCCOCCOCCOCCCN*)CC1; mXylylene = c1cc(C[*:1])cc(C[*:2])c1; Pentanesulfonyl = CCCCCS(=O)(=O)*; Suc = O=C(CCC(=O)[*:2])[*:1]; Nle = CCCC[C@H](N)C(=O)O; CO = O=C([*:1])[*:2]; ξC = NC(CS)C(=O)O; βAla = NCCC(=O)O; NHBu = CCCCN*
Kindly supply the reported Kd values for the records listed here.

Q: Give Kd for CCCC[C@H](NC(=O)CCOCCOCCOCCOCCOCCOCCNC(=O)C(CNCCN)CNCCN)C(=O)N[C@H]1CSCc2cncc(c2)CSCC(C(=O)O)NC(=O)[C@H](Cc2ccccc2)NC(=O)[C@H](CCC(N)=O)NC(=O)[C@H]([C@@H](C)O)NC(=O)[C@@H]2CCCN2C(=O)[C@@H]2CCCN2C1=O (stereo partly drawn) [3BP-4550]
Result: 10 to 79.4 nM

Q: Give Kd for CCCCCC(=O)N[C@H]1CSCc2cc(CSCCNC(=O)CN3CCN(CC(=O)O)CCN(CC(=O)O)CCN(CC(=O)O)CC3)cc(c2)CSC[C@@H](C(=O)O)NC(=O)[C@H](Cc2ccccc2C(F)(F)F)NC(=O)[C@H](CCC(N)=O)NC(=O)[C@H]([C@@H](C)O)NC(=O)[C@@H]2CCCN2C(=O)[C@@H]2CCCN2C1=O [3BP-3680]
Result: < 10 nM

Q: Give Kd for CCCCNC(=O)N[C@H]1CSCc2cc(CSCCNC(=O)CCP(=O)(O)CN3CCN(CP(=O)(O)CO)CCN(CP(=O)(O)CO)CC3)cc(c2)CSCC(C(=O)O)NC(=O)[C@H](Cc2ccccc2)NC(=O)[C@H](CCC(=O)O)NC(=O)[C@H]([C@@H](C)O)NC(=O)[C@@H]2CCCN2C(=O)[C@@H]2CCCN2C1=O (stereo partly drawn) [3BP-4778] ({NHBu-CO}-CPPTEF[ξC]-OH; linker 1-7 via X7)
Result: < 10 nM

Q: Give Kd for CCCCCS(=O)(=O)N[C@H]1CSCc2cc(cc(CN3CCN(C(=O)CN4CCN(CC(=O)O)CCN(CC(=O)O)CCN(CC(=O)O)CC4)CC3)c2)CSC[C@@H](C(=O)N[C@@H](CC(=O)O)C(N)=O)NC(=O)[C@H](Cc2ccccc2)NC(=O)[C@H](CCC(N)=O)NC(=O)[C@H]([C@@H](C)O)NC(=O)[C@@H]2CCCN2C(=O)[C@@H]2CCCN2C1=O [3BP-3692] (Pentanesulfonyl-CPPTQFCD-NH2; linker 1-7 via X13)
Result: < 10 nM

Q: Give Kd for CCCCCC(=O)N[C@H]1CSCc2cc(CSCCNC(=O)CCC(=O)NCCCOCCOCCOCCCNC(=O)CCC(=O)NCCCOCCOCCOCCCNC(=O)CCC(=O)NCCCOCCOCCOCCCNC(=O)CCC(=O)NCCCOCCOCCOCCCNC(=O)c3ccc4c(c3)C(=O)OC43c4ccc(N)c(S(=O)(=O)O)c4Oc4c3ccc(N)c4S(=O)(=O)O)cc(c2)CSC[C@@H](C(=O)O)NC(=O)[C@H](Cc2ccccc2)NC(=O)[C@H](CCC(N)=O)NC(=O)[C@H]([C@@H](C)O)NC(=O)[C@@H]2CCCN2C(=O)[C@@H]2CCCN2C1=O [3BP-4232]
Result: 100 to 794 nM

Q: Give Kd for CCCC[C@H](NC(=O)CCC(=O)NCCCOCCOCCOCCCNC(=O)CN1CCN(C(=O)C(CNCCN)CNCCN)CC1)C(=O)N[C@H]1CSCc2cccc(c2)CSC[C@@H](C(=O)NCCC(=O)O)NC(=O)[C@H](Cc2ccccc2)NC(=O)[C@H](CCC(=O)O)NC(=O)[C@H]([C@@H](C)O)NC(=O)[C@@H]2CCCN2C(=O)[C@@H]2CCCN2C1=O [3BP-4784] ({X1-Suc}-[Nle]CPPTEFC[βAla]-OH; linker 2-8 via mXylylene)
Result: < 10 nM

* * *

Assay Procedure: in vivo
Test Conditions: swiss nude, mouse, kidneys, iv
Numbered stars: 1 amine (or outer) side, 2 acyl side, 3 side chain; on linkers, the order of the positions; unused ones are H or OH. Bridge positions count the residues as written; N and C are the ends. Square brackets hold non-standard residues; d marks the D form. Peptide text beside a SMILES is read from it. * marks the point of attachment. X1 = NCCNCC(CNCCN)C(=O)N1CCN(CC(=O)NCCCOCCOCCOCCCN*)CC1; mXylylene = c1cc(C[*:1])cc(C[*:2])c1; Suc = O=C(CCC(=O)[*:2])[*:1]; Nle = CCCC[C@H](N)C(=O)O
Recorded Metric: tissue uptake at 1 h (%ID/g)
The figure you give is taken to be in %ID/g; do not add the unit.

Q: Give tissue uptake at 1 h for CCCC[C@H](NC(=O)CCC(=O)NCCCOCCOCCOCCCNC(=O)CCOCCOCCOCCOCCOCCOCCNC(=O)C(CNCCN)CNCCN)C(=O)N[C@H]1CSCc2cccc(c2)CSCC(C(=O)O)NC(=O)[C@H](Cc2ccccc2)NC(=O)[C@H](CCC(N)=O)NC(=O)[C@H]([C@@H](C)O)NC(=O)[C@@H]2CCCN2C(=O)[C@@H]2CCCN2C1=O (stereo partly shown)
Result: 3.17

Q: Give tissue uptake at 1 h for "CCCC[C@H](NC(=O)CCC(=O)NCCCOCCOCCOCCCNC(=O)CN1CCN(C(=O)C(CNCCN)CNCCN)CC1)C(=O)N[C@H]1CSCc2cncc(c2)CSC[C@@H](C(=O)NCCC(=O)O)NC(=O)[C@H](Cc2ccccc2)NC(=O)[C@H](CCC(N)=O)NC(=O)[C@H]([C@@H](C)O)NC(=O)[C@@H]2CCCN2C(=O)[C@@H]2CCCN2C1=O"
Result: 2.36

Q: Give tissue uptake at 1 h for CCCC[C@H](NC(=O)CCOCCOCCOCCOCCOCCOCCNC(=O)C(CNCCN)CNCCN)C(=O)N[C@H]1CSCc2cccc(c2)CSCC(C(=O)O)NC(=O)[C@H](Cc2ccccc2)NC(=O)[C@H](CCC(N)=O)NC(=O)[C@H]([C@@H](C)O)NC(=O)[C@@H]2CCCN2C(=O)[C@@H]2CCCN2C1=O (stereo partly shown)
Result: 4.34

Q: Give tissue uptake at 1 h for CCCC[C@H](NC(=O)CCC(=O)NCCCOCCOCCOCCCNC(=O)C(CNCCN)CNCCN)C(=O)N[C@H]1CSCc2cncc(c2)CSCC(C(=O)O)NC(=O)[C@H](Cc2ccccc2)NC(=O)[C@H](CCC(N)=O)NC(=O)[C@H]([C@@H](C)O)NC(=O)[C@@H]2CCCN2C(=O)[C@@H]2CCCN2C1=O (stereo partly shown)
Result: 4.22

Q: Give tissue uptake at 1 h for CCCC[C@H](NC(=O)CCC(=O)NCCCOCCOCCOCCCNC(=O)CN1CCN(C(=O)C(CNCCN)CNCCN)CC1)C(=O)N[C@H]1CSCc2cccc(c2)CSC[C@@H](C(=O)O)NC(=O)[C@H](Cc2ccccc2)NC(=O)[C@H](CCC(=O)O)NC(=O)[C@H]([C@@H](C)O)NC(=O)[C@@H]2CCCN2C(=O)[C@@H]2CCCN2C1=O [3BP-4782] ({X1-Suc}-[Nle]CPPTEFC-OH; linker 2-8 via mXylylene)
Result: 7.28

Q: Give tissue uptake at 1 h for "CCCCNC(=O)N[C@H]1CSCc2cc(CSCCNC(=O)C(CNCCN)CNCCN)cc(c2)CSC[C@@H](C(=O)O)NC(=O)[C@H](Cc2ccccc2)NC(=O)[C@H](CCC(N)=O)NC(=O)[C@H]([C@@H](C)O)NC(=O)[C@@H]2CCCN2C(=O)[C@@H]2CCCN2C1=O"
Result: 2.06

Q: Give tissue uptake at 1 h for "CCCCNC(=O)N[C@H]1CSCc2cc(cc(CN3CCN(C(=O)C(CNCCN)CNCCN)CC3)c2)CSC[C@@H](C(=O)O)NC(=O)[C@H](Cc2ccccc2)NC(=O)[C@H](CCC(N)=O)NC(=O)[C@H]([C@@H](C)O)NC(=O)[C@@H]2CCCN2C(=O)[C@@H]2CCCN2C1=O"
Result: 6.04
